Where these numbers come from: PubChem BioAssay (NCATS)

- Tested on: Tov112D
- EXPERIMENTAL PROTOCOL: Primary qHTS to identify gynecologic anti-cancer compounds using libraries of approved drugs and bioactive compounds (AID 1345084); further: nearly all actives have a fitted effect of over 55% in size; further: potency means the concentration at half of the fitted maximal effect
- CONDITIONS: Gynecologic cancer cell panel viability, ATPlite luminescence, 48 h; series mostly up to 57.5 µM
Results filed as inconclusive are left out. Activity calls are given as the source filed them. The call rests on the fitted dose curve; in most records, active means well fitted cell-killing curve with a large enough effect; inconclusive means small, poorly fitted or top-dose-only effect, or effect the other way; inactive means flat fitted curve, though single readings scatter.
PROPERTY: Potency

>>> assay_value("CC1=C(COC2OC(CO)C(O)C(O)C2O)C(C(CO)C(=O)O)CC1 (stereo not drawn)")
"inactive"
>>> assay_value("O=C(NCC(O)CO)c1ccncc1Nc1ccc(I)cc1F (stereo not drawn)")
"inactive"
>>> assay_value("CN1CCN(c2ccc(C(=O)Nc3n[nH]c4ccc(Cc5cc(F)cc(F)c5)cc34)c(NC3CCOCC3)c2)CC1")
"inactive"
>>> assay_value("C=C1CC23CC1CCC2C12OC(=O)C(C)(CCC1O)C2C3C(=O)O (stereo not drawn)")
"inactive"

Count: 3. Required value per item: Potency.
1. CCc1c(C)nc2c(-c3cnn(-c4cc(CO)ccn4)c3)c[nH]n2c1=O
2. CC[C@]1(O)CC2CN(CCc3c([nH]c4ccccc34)[C@@](C(=O)OC)(c3cc4c(cc3OC)N(C=O)[C@H]3[C@@](O)(C(=O)OC)[C@H](OC(C)=O)[C@]5(CC)C=CCN6CC[C@]43[C@@H]65)C2)C1 (stereo partly drawn)
3. CC(C)Oc1ccc(C(=O)NC(CNC(=O)CN(C)C)Cc2ccc(-c3cn4cccc(C(C)O)c4n3)cc2)cc1Cl (stereo not drawn)

inactive
158 nM (active)
316 nM (active)

Check the records and state Potency for Cc1cc(OCc2nnc(SC3CCCC3)n2-c2cccnc2)ccc1-c1ccc(S(C)(=O)=O)cc1
31600 nM (active)

====

- System: Hek293T
- EXPERIMENTAL PROTOCOL: Primary qHTS to identify gynecologic anti-cancer compounds using libraries of approved drugs and bioactive compounds (AID 1345084); further: nearly all actives have a fitted effect of over 55% in size
- CONDITIONS: Gynecologic cancer cell panel viability, ATPlite luminescence, 48 h, control line for the selectivity index; series mostly up to 57.5 µM
Results filed as inconclusive are left out. Calls of active or inactive are those of the source. Calls come from the whole dose curve; as a rule, active = well fitted cell-killing curve with a large enough effect; inconclusive = small, poorly fitted or top-dose-only effect, or effect the other way; inactive = flat fitted curve, though single readings scatter.
Respond with a class label; see active, inactive

Solved entries:
>>> answer_label("CN(C)c1nc(NC2CCC(NCCc3ccc(Br)cc3OC(F)(F)F)CC2)nc2ccccc12 (stereo not drawn)")
"active"
>>> answer_label("C=C[C@H]1[C@H](O[C@@H]2O[C@H](CO)[C@@H](O)[C@H](O)[C@H]2O)OC=C(C(=O)OC)[C@H]1CC(=O)O")
"inactive"
>>> answer_label("CCC(C)/C=C(C)/C=C/c1cc2c(cn1)C(=O)C(C)(OC(C)=O)C(O)=C2Cl (stereo not drawn)")
"inactive"
>>> answer_label("COC(=O)c1cc(OC)c(O[C@@H]2O[C@@H](C)[C@H](O)[C@@H](O)[C@H]2O)c(OC)c1")
"inactive"
>>> answer_label("C=CC(C)(O)CC[C@H]1C(=C)CCC2[C@](C)(C(=O)O)CCC[C@@]21C (stereo partly drawn)")
"inactive"

I would be grateful if you could indicate the recorded call for COC(=O)C1=CO[C@@H](O)C2C(CO)=CCC12 (stereo partly drawn) .
inactive

====

- TARGET ENTITY: Cytochrome P450 2C9 (Homo sapiens)
- EXPERIMENTAL PROTOCOL: Cytochrome P450 family 2 subfamily C member 9 (CYP2C9) small molecule antagonists: luciferase biochemical (cell-free) qHTS assay (AID 1645842); further: nearly all actives have a fitted effect of over 55% in size
- CONDITIONS: P450-Glo CYP2C9 enzyme assay, luciferin luminescence; series mostly up to 57.4 µM
- From the text: National Center for Advancing Translational Sciences [NCATS] Assay Overview: Cytochrome P450 (CYP) enzymes are membrane-bound hemeproteins that play a key role in metabolism of drugs and xenobiotics. Assaying the effect of chemicals on CYP isozymes is useful to minimize the adverse drug reactions and toxicities in drug development process. […] The luciferin products formed are detected with a luciferin detection reagent, and the amount of light produced is proportional to CYP activity. […]
Inconclusive results are not listed. Active and inactive are the calls of the source. Calls come from the whole dose curve; as a rule, active = well fitted inhibition curve with a large enough effect in the repeat runs; inconclusive = weak or mixed curves; inactive = no such curve, though single readings can be large or run the other way.
Classes to choose from: Y = active, N = inactive

# example entries with known answers
>>> answer_label("CC(C)c1nc(-c2ccc(NC(=O)Nc3cccc(C(F)(F)F)c3)c3ccccc23)c2c(N)nccn12")
"Y"
>>> answer_label("COCCN1CCN(Cc2ccc(-c3n[nH]c4c3C(=O)c3c(NC(=O)NN5CCOCC5)cccc3-4)cc2)CC1")
"Y"
>>> answer_label("Cc1nc(Nc2n[nH]c3c2CN(C(=O)NC(CN(C)C)c2ccccc2)C3(C)C)c2sccc2n1 (centres undefined)")
"Y"
>>> answer_label("COc1cc2ncnc(Nc3ccc(F)c(Cl)c3)c2cc1NC(=O)/C=C/CN1CCCCC1")
"N"
>>> answer_label("COc1cc(Br)c(S(=O)(=O)Nc2ccc(C(F)(F)F)c(O[C@@H]3CCN(C)C3)c2)cc1OC")
"Y"

Record lookup: outcome of this test for CN(c1ccccc1CNc1nc(Nc2ccc3c(c2)CC(=O)N3)ncc1C(F)(F)F)S(C)(=O)=O ?
Y

Status in this test for C=CC(=O)Nc1cc(Nc2ncc(Cl)c(-c3c[nH]c4ccccc34)n2)c(OC)cc1N(C)CCN(C)C ?
Y

I would be grateful if you could indicate the recorded call for COc1cc(Br)c(Nc2nc(-c3c(C)nc4ncccn34)cs2)c(Br)c1 .
Y

GET /call?item= COc1cc2nc(N3CCCC3)nc(NCCCCCN3CCCC3)c2cc1OC returns the recorded outcome of this test.
N

====

- Test system: CAOV3
- EXPERIMENTAL PROTOCOL: Primary qHTS to identify gynecologic anti-cancer compounds using libraries of approved drugs and bioactive compounds (AID 1345084); further: nearly all actives have a fitted effect of over 55% in size
- CONDITIONS: Gynecologic cancer cell panel viability, ATPlite luminescence, 48 h; series mostly up to 57.5 µM
Records with an inconclusive call do not appear. Active and inactive are the calls of the source. Calls come from the whole dose curve; as a rule, active = well fitted cell-killing curve with a large enough effect; inconclusive = small, poorly fitted or top-dose-only effect, or effect the other way; inactive = flat fitted curve, though single readings scatter.
Just give me one of these, please: y for active, n for inactive

Answered cases to consult:
>>> answer_label("C=C1CCC2C(C)(C)C(O)CCC2(C)C1CCC(C)CCO (stereo not given)")
"n"
>>> answer_label("CC(C)=CCC/C(C)=C/CCC1(C)Oc2c(c(O)cc3c2CN(C(CCC(=O)O)C(=O)O)C3=O)CC1O (stereo not given)")
"n"
>>> answer_label("CC1(C(=O)O)CCCC2(C)C3=CCC4CC3(CCC12)CC4CO (stereo not given)")
"n"

Please let me know the test result on file for C=C(C)[C@@H]1CC[C@]2(C)CC[C@]3(C)[C@H](CC[C@@H]4[C@@]5(C)CC[C@@H](O)C(C)(C)[C@@H]5CC[C@]43C)[C@@H]12 .
n

Status in this test for COc1cc(C2Oc3c(OC)cc(CCCO)cc3C2CO)ccc1O[C@H]1O[C@H](C)[C@@H](O)[C@H](O)[C@@H]1O (stereo not given in full) ?
n

I would be grateful if you could indicate the recorded call for C=CC(C)(CC/C=C(\C)C(=O)OC)OC1OC(COC(=O)CC(C)(O)CC(=O)O)C(OC2OC(CO)C(O)C(O)C2O)C(O)C1O (stereo not given) .
n

====

- Tested on: Tov112D
- EXPERIMENTAL PROTOCOL: Primary qHTS to identify gynecologic anti-cancer compounds using libraries of approved drugs and bioactive compounds (AID 1345084); further: nearly all actives have a fitted effect of over 55% in size
- CONDITIONS: Gynecologic cancer cell panel viability, ATPlite luminescence, 48 h; series mostly up to 57.5 µM
- Description: National Center for Advancing Translational Sciences [NCATS] Assay Overview: Chemotherapeutic drug responses vary from cancer to cancer and from patient to patient. […] ATPlite is a luminescence based assay reliant on the conversion of a luciferase substrate to light in the presence of ATP. As a cytotoxic compound will suppress growth and decrease the number of cells, the concentration of ATP will decrease, and less light signal will be detected in the well. […]
Results filed as inconclusive are left out. Calls of active or inactive are those of the source. Calls come from the whole dose curve; as a rule, active = well fitted cell-killing curve with a large enough effect; inconclusive = small, poorly fitted or top-dose-only effect, or effect the other way; inactive = flat fitted curve, though single readings scatter.
PROPERTY: outcome

>>> assay_value("C[C@@]12C[C@]3(O)O[C@H](O1)[C@]1(COC(=O)c4ccccc4)[C@H]3C[C@@]12O[C@@H]1O[C@H](CO)[C@@H](O)[C@H](O)[C@H]1O")
"inactive"
>>> assay_value("COc1ncc(Nc2ncc([C@H](C)N3CCN(S(C)(=O)=O)CC3)cc2-c2nc(C)nc(N)n2)cc1F")
"inactive"
>>> assay_value("O=C(O)CCCCCC[C@H]1C(=O)NC(=O)N1CC[C@@H](O)C1CCCCC1")
"inactive"
>>> assay_value("COc1ccc(CCO[C@@H]2CCCC[C@H]2N2CC[C@@H](O)C2)cc1OC")
"inactive"

====

- TARGET ENTITY: Cytochrome P450 2D6 (Homo sapiens) (UniProt P10635)
- Sequence (P10635 whole entry, looked up): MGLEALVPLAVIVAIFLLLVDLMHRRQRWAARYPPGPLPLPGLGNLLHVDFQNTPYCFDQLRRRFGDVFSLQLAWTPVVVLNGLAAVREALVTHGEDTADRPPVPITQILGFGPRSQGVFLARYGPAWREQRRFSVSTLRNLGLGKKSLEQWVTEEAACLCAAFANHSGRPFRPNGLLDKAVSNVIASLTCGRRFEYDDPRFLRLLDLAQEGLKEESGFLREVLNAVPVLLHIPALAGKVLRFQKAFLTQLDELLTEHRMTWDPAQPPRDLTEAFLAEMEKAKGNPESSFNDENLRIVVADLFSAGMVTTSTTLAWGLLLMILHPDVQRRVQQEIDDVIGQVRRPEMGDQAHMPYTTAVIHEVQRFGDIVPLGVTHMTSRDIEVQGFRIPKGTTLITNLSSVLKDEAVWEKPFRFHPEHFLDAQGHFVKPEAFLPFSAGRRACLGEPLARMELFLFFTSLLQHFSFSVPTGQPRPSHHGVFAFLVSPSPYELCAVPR
- EXPERIMENTAL PROTOCOL: Cytochrome P450 family 2 subfamily D member 6 (CYP2D6) small molecule antagonists: luciferase biochemical (cell-free) qHTS assay (AID 1645840); further: nearly all actives have a fitted effect of over 55% in size
- CONDITIONS: P450-Glo CYP2D6 enzyme, luciferin luminescence, 1 h; series mostly up to 57.4 µM
Results filed as inconclusive are left out. Calls of active or inactive are those of the source. The call rests on the fitted dose curve; in most records, active means well fitted inhibition curve with a large enough effect in the repeat runs; inconclusive means weak or mixed curves; inactive means flat fitted curve, though single readings scatter.
Result category, one only: Y for active, N for inactive

Field: example entries. Status: answers known.
>>> answer_label("O=C(O)c1ccccc1NC(=O)N1CCC(c2ccccc2C(F)(F)F)CC1")
"N"
>>> answer_label("Cc1nc(C)c(-c2ccc(C3CCC(CC(=O)O)CC3)cc2)nc1C(N)=O (stereo not given)")
"N"

Per the records of this test, what outcome belongs to CN(C)c1nc(NC2CCC(NC(=O)c3ccc(F)c(F)c3)CC2)nc2ccccc12 (stereo not given) ?
Y

Dear colleague, could you share the recorded outcome for COc1cc(Br)c(S(=O)(=O)Nc2ccc(C(F)(F)F)c(O[C@@H]3CCN(C)C3)c2)cc1OC when you have a moment?
Y

Test call for this molecule, please: COc1cc2ncnc(Nc3cccc(O)c3)c2cc1OC
N
